The reported measurements were obtained from the RNAGym collection of RNA variant scans (doi:10.7554/elife.90254).

B1: LINE1-full (parent)
chain: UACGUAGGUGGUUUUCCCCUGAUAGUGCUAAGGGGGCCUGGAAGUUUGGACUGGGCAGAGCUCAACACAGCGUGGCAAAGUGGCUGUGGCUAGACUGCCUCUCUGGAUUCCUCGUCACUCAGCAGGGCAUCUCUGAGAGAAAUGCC

- Variants of: B1
- Method notes: self-cleavage, relative activity (ratio to wild type); higher = more cleavage; in vitro, sequencing; the parent is a self-cleaving ribozyme
Observable: self-cleavage

| Sequence content | Recorded result |
| --- | --- |
| UACGUAGGUGGUUUUCCCCUGAUAGAGCUAAGGGGGCCUGGAAGUUUGGACUGGGCAGAGCUCAACACAGCGUGGCAAAGUGGCUGUGGCUGGACUGCCUCUCUGGAUUCCUCGUCACUCAGCAGGGCAUCUCUGAGAGAAAUGCC [U26A A92G] | 0.05 |
| UACGUAGGUGGUUUUCCCCUGAUAGUGCUAAGGGGGCCUGGAAGUUUGGACUGGGCAGAGCUCAACACAGCGUGGCAAAGUGGCUGUGGCUAGACUGCCUCUCUGGAUUCCUCGUCACUAAGCAGGGCGUCUCUGAGAGAAAUGCC [C120A A129G] | 1.29 |
| UACGUAGGUGGUUUUCCCCUGAUAGUGCUAAGGGGGCCUGGAAGUUUGGACUGGGCAGAGCUCAACACAGCGUGGCAAAGUGGCUGUGGCUAGACUGCCUCCCUGGAUUCCUCGUUACUCAGCAGGGCAUCUCUGAGAGAAAUGCC [U102C C116U] | 1.72 |
| UACGUAGGUGGUUUUCCCCUGAUAGUGCUAAGGGGGCCUGGAAGUUUGGACUGGGCAGAGCUCAACACAGCGUGGCAAAAUGGCUGUGGCUAGACUGCCUCUCUGGAUUCCUCGUCACUCAGCAGUGCAUCUCUGAGAGAAAUGCC [G80A G126U] | 2.06 |
| UACGUAGGUGGUUUUCCCCUGAUAGUGCUAAGGGGGCCUGGAAGUUUGGUCUGGGCAGAGCUCAACACAGCGUGGCAAAGUGGCCGUGGCUAGACUGCCUCUCUGGAUUCCUCGUCACUCAGCAGGGCAUCUCUGAGAGAAAUGCC [A50U U85C] | 0.14 |
